This section lists IC50 readings for P2Y purinoceptor 12 (Homo sapiens).
I only need the number, in nM, no unit after it.

SMILES_STRING: CCOC(=O)c1cc(C#N)c(N2CCN(C(=O)NS(=O)(=O)c3ccc(C)cc3)CC2)nc1C(F)(F)F
IC50 [nM]: 120

Prompt line: What measured IC50 goes with CCCC(=O)c1cnc(N2CCN(C(=O)NS(=O)(=O)c3ccc(Cl)s3)CC2)c(Cl)c1 ?
Response line: 560

Prompt line: Note, next up: CCOC(=O)c1cc(C#N)c(N2CCN(C(=O)NS(=O)(=O)c3ccccc3)CC2)nc1C(F)(F)F
Response line: 170

Prompt line: Note, next up: CCOC(=O)c1cc(C#N)c(N2CCCN(C(=O)NS(=O)(=O)c3ccc(Cl)s3)CC2)nc1C
Response line: 630

----------
Catalogue of molecules with associated solubility kinetic at 16 h
Experiment: physchem
Conditions: HBSS buffer, pH 7.4
Description: Kinetic solubility in HBSS buffer at pH 7.4 after 16 hrs by LC-UV/MS analysis
I only need the number, in µM, no unit after it.

SMILES_STRING: CCOC(=O)c1cnc(N2CCN(C(=O)NS(=O)(=O)c3ccccc3C)CC2)c(Cl)c1
NUMERIC_VALUE: 210

Now turn to the next molecule.
Prompt line: What measured solubility kinetic at 16 h goes with CCOC(=O)c1cnc(N2CCN(C(=O)NS(=O)(=O)c3ccc(C)cc3)CC2)c(Cl)c1 ?
Response line: 490

----------
This section lists log10(IC50) readings for P2Y purinoceptor 12 (Homo sapiens).
Log10 applied to IC50; unit prior to transform: nM.

MOLECULE: CCOC(=O)c1ccc(N2CCN(C(=O)NS(=O)(=O)c3ccc(Cl)s3)CC2)c(Cl)c1
log10(IC50): 3.26

Prompt line: What measured log10(IC50) goes with CCOC(=O)c1cnc(N2CCN(C(=O)Nc3ccccc3)CC2CCC(=O)O)c(Cl)c1 (racemic) ?
Response line: 3.34

Prompt line: Note, next up: CCOC(=O)c1cnc(N2CCN(C(=O)NS(=O)(=O)c3ccccc3Cl)CC2)c(Cl)c1
Response line: 3.00

Prompt line: Note, next up: CCOC(=O)c1cc(C#N)c(N2CCC(NC(=O)NS(=O)(=O)Cc3ccccc3)CC2)nc1C
Response line: 2.18

----------
Assay: physchem
Settings: HBSS buffer, pH 6.8
Description: Kinetic solubility in HBSS buffer at pH 6.8 after 16 hrs by LC-UV/MS analysis
READOUT_LABEL: solubility kinetic at 16 h (µM)
I only need the number, in µM, no unit after it.

Look over these answered cases.
COMPOUND: CCOC(=O)c1cnc(N2CCN(C(=O)NS(=O)(=O)c3ccccc3)CC2)c(Cl)c1
NUMERIC_VALUE: 100
--
COMPOUND: CCOC(=O)c1cnc(N2CCN(C(=O)Nc3ccccc3)CC2CCC(=O)O)c(Cl)c1 (racemic)
NUMERIC_VALUE: 96

Now turn to the next compound.
Prompt line: What measured solubility kinetic at 16 h goes with CCOC(=O)c1cc(C#N)c(N2CCN(C(=O)NCCc3cccs3)CC2)nc1C(F)(F)F ?
Response line: 15

----------
Assay: Apparent Permeability across apical to basolateral side in human Caco2 cells at 1 to 10 uM measured at 30 to 90 mins by LC/MS analysis
Type: ADME, cell-based
Settings: Caco-2
Catalogue of compounds with associated Papp A→B at up to 10 µM
I only need the number, in ×10⁻⁶ cm/s, no unit after it.

Look over these answered cases.
SMILES_STRING: CCOC(=O)c1cnc(N2CCN(C(=O)NS(=O)(=O)c3ccc(C)cc3)CC2)c(Cl)c1
UNITS: ×10⁻⁶ cm/s
NUMERIC_VALUE: 2.5
//
SMILES_STRING: CCOC(=O)c1cc(C#N)c(N2CC(NC(=O)NS(=O)(=O)c3ccc(Cl)cc3)C2)nc1C
UNITS: ×10⁻⁶ cm/s
NUMERIC_VALUE: 1.2
//
SMILES_STRING: CCOC(=O)c1cc(C#N)c(N2CCN(C(=O)NS(=O)(=O)c3ccc(F)cc3)CC2)nc1C(F)(F)F
UNITS: ×10⁻⁶ cm/s
NUMERIC_VALUE: 0.053
//
SMILES_STRING: CCCCOC(=O)c1cnc(N2CCN(C(=O)NS(=O)(=O)c3ccc(Cl)s3)CC2)c(Cl)c1
UNITS: ×10⁻⁶ cm/s
NUMERIC_VALUE: 0.5
//
SMILES_STRING: CCOC(=O)c1cc(C#N)c(N2CC(NC(=O)NS(=O)(=O)c3ccc(Cl)s3)C2)nc1C
UNITS: ×10⁻⁶ cm/s
NUMERIC_VALUE: 0.11

Now turn to the next compound.
Prompt line: What measured Papp A→B at up to 10 µM goes with CCOC(=O)c1cc(C#N)c(N2CCN(C(=O)NS(=O)(=O)c3ccc(Cl)s3)CC2)nc1C(F)(F)F ?
Response line: 0.076
